Target: T1, Rat RGMa (rat) (UniProt D4A188)
T1 sequence: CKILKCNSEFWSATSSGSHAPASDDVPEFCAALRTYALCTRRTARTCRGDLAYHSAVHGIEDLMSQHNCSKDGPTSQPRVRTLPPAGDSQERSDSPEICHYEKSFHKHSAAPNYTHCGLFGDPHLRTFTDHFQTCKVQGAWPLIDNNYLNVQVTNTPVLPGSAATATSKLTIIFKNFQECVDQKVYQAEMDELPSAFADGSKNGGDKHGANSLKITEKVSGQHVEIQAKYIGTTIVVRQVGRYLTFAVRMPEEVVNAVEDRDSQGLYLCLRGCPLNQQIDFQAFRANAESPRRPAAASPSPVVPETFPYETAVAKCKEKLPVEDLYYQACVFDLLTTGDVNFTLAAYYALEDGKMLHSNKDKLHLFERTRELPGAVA
Experiment: BIAcore; Ab captured via anti-hIgG Fc on CM5 chip, antigen injected; 1:1 Langmuir fit
koff reference
Quantity: koff (s⁻¹)

Binder	Comparison Symbol	Reported
RGMA-h5F9pJP297/pJP299 hIgG1/K mut (antibody, V domains shown, Tested as IgG; also called h5F9.AM9; H5F9AM.9) VH: EVQLVESGGGVVQPGRSLRLSCAASGFTFSNYGMNWVRQAPGKGLEWVAMIYYDSSEKHYADSVKGRFTISRDNSKNTLYLQMNSLRAEDTAVYYCARGTTPDYWGQGTMVTVSS VL: DVVLTQSPLSLPVTLGQPASISCRSSQSLADSDGDTFLHWFQQRPGQSPRLLIYAVSHRFSGVPDRFSGSGSGTDFTLKISRVEAEDVGVYYCFQATHDPVTFGQGTKLEIK	=	0.00021
RGMA-h5F9Vh7a/pJP291 hIgG1/K mut (antibody, V domains shown, Tested as IgG; also called h5F9.AM4; H5F9AM.4) VH: EVQLVESGGGLVQPGGSLRLSCAASGFTFSNYGMNWIRQAPGKGLEWIGMIYYDSSEKHYADSVKGRFTISRDNSKNTLYLQMNSLRAEDTAVYYCAKGTTPDYWGQGTMVTVSS VL: DVVLTQSPLSLPVTLGQPASISCRSSQSLESSDGDTFLEWFQQRPGQSPRLLIYDVSTRFSGVPDRFSGSGSGTDFTLKISRVEAEDVGVYYCFQVTHDPVTFGQGTKLEIK	<	1e-06
